measurement-description: Oral bioavailability in beagle dog at 10 mg/kg measured up to 24 hrs by LC-MS/MS analysis
Format: ADME, organism-based, Canis lupus familiaris
applied-conditions: in vivo
reported-metric: bioavailability (%)

>>> meas_value("COC(=O)N[C@H](C(=O)N1CCC[C@H]1c1ncc(-c2ccc3c(ccc4cc(-c5cnc([C@@H]6CCCN6C(=O)[C@@H](NC(=O)OC)C(C)C)[nH]5)sc43)c2)[nH]1)C(C)C")
100
>>> meas_value("COC(=O)N[C@H](C(=O)N1CCC[C@H]1c1ncc(-c2ccc3c(c2)OCc2cc(-c4cnc([C@@H]5CCCN5C(=O)[C@@H](NC(=O)OC)C(C)C)[nH]4)sc2-3)[nH]1)C(C)C")
100

====

measurement-description: Drug level in liver of Wistar rat at 10 mg/kg, po measured at 4 hrs by LC-MS/MS analysis
Type: ADME, organism-based
applied-conditions: read-out: Drug uptake
reported-metric: concentration at 4 h (µM)

>>> meas_value("COC(=O)N[C@H](C(=O)N1CCC[C@H]1c1ncc(-c2ccc3c(ccc4cc(-c5cnc([C@@H]6CCCN6C(=O)[C@@H](NC(=O)OC)C(C)C)[nH]5)sc43)c2)[nH]1)C(C)C")
8.5
>>> meas_value("COC(=O)N[C@H](C(=O)N1CCC[C@H]1c1ncc(-c2ccc3c(c2)CCc2cc(-c4cnc([C@@H]5CCCN5C(=O)[C@@H](NC(=O)OC)C(C)C)[nH]4)sc2-3)[nH]1)C(C)C")
7.4
>>> meas_value("COC(=O)N[C@H](C(=O)N1CCC[C@H]1c1ncc(-c2ccc3c(c2)OCC(C)(C)COc2cc(-c4cnc([C@@H]5CCCN5C(=O)[C@@H](NC(=O)OC)C(C)C)[nH]4)ccc2-3)[nH]1)C(C)C")
7.6
>>> meas_value("COC(=O)N[C@H](C(=O)N1CCC[C@H]1c1nc(Cl)c(-c2ccc3c(c2)OCC(C)(C)COc2cc(-c4[nH]c([C@@H]5CCCN5C(=O)[C@@H](NC(=O)OC)C(C)C)nc4Cl)ccc2-3)[nH]1)C(C)C")
7.1
>>> meas_value("COC(=O)N[C@H](C(=O)N1CCC[C@H]1c1ncc(-c2ccc3c(c2)OCc2cc(-c4cnc([C@@H]5CCCN5C(=O)[C@@H](NC(=O)OC)C(C)C)[nH]4)sc2-3)[nH]1)C(C)C")
7.9

====

measurement-description: AUC(last) in beagle dog at 1 mg/kg, iv measured up to 24 hrs by LC-MS/MS analysis
Type: ADME, organism-based, Canis lupus familiaris
Design: dose 1 mg/kg, route intravenous, time 0 - last
applied-conditions: in vivo
The molecules listed here are annotated with their AUC(0-t) at 24 h.
reported-metric: AUC(0-t) at 24 h (µM·h)

>>> meas_value("COC(=O)N[C@H](C(=O)N1CCC[C@H]1c1ncc(-c2ccc3c(c2)CCc2cc(-c4cnc([C@@H]5CCCN5C(=O)[C@@H](NC(=O)OC)C(C)C)[nH]4)sc2-3)[nH]1)C(C)C")
4
>>> meas_value("COC(=O)N[C@H](C(=O)N1CCC[C@H]1c1ncc(-c2ccc3c(c2)OCc2cc(-c4cnc([C@@H]5CCCN5C(=O)[C@@H](NC(=O)OC)C(C)C)[nH]4)sc2-3)[nH]1)C(C)C")
3
>>> meas_value("COC(=O)N[C@H](C(=O)N1CCC[C@H]1c1ncc(-c2ccc3c(ccc4cc(-c5cnc([C@@H]6CCCN6C(=O)[C@@H](NC(=O)OC)C(C)C)[nH]5)sc43)c2)[nH]1)C(C)C")
3

====

measurement-description: Ratio of dug level in liver to plasma of Wistar rat at 10 mg/kg, po measured at 4 hrs by LC-MS/MS analysis
Type: ADME, organism-based
Label class 1 when Kp at 4 h is strictly below 10; at or above that, label class 0.

>>> class("COC(=O)N[C@H](C(=O)N1CCC[C@H]1c1ncc(-c2ccc3c(c2)OCc2cc(-c4cnc([C@@H]5CCCN5C(=O)[C@@H](NC(=O)OC)C(C)C)[nH]4)sc2-3)[nH]1)C(C)C")
"class 1"
>>> class("COC(=O)N[C@H](C(=O)N1CCC[C@H]1c1ncc(-c2ccc3c(c2)OCC(C)(C)COc2cc(-c4cnc([C@@H]5CCCN5C(=O)[C@@H](NC(=O)OC)C(C)C)[nH]4)ccc2-3)[nH]1)C(C)C")
"class 0"
>>> class("COC(=O)N[C@H](C(=O)N1CCC[C@H]1c1ncc(-c2ccc3c(ccc4cc(-c5cnc([C@@H]6CCCN6C(=O)[C@@H](NC(=O)OC)C(C)C)[nH]5)sc43)c2)[nH]1)C(C)C")
"class 0"
>>> class("COC(=O)N[C@H](C(=O)N1CCC[C@H]1c1ncc(-c2ccc3c(c2)CCc2cc(-c4cnc([C@@H]5CCCN5C(=O)[C@@H](NC(=O)OC)C(C)C)[nH]4)sc2-3)[nH]1)C(C)C")
"class 1"
>>> class("COC(=O)N[C@H](C(=O)N1CCC[C@H]1c1nc(Cl)c(-c2ccc3c(c2)OCC(C)(C)COc2cc(-c4[nH]c([C@@H]5CCCN5C(=O)[C@@H](NC(=O)OC)C(C)C)nc4Cl)ccc2-3)[nH]1)C(C)C")
"class 0"

====

measurement-description: Tmax in beagle dog at 100 mg/kg, po measured up to 24 hrs by LC-MS/MS analysis
Format: ADME, organism-based, Canis lupus familiaris
applied-conditions: in vivo
reported-metric: Tmax (h)

>>> meas_value("COC(=O)N[C@H](C(=O)N1CCC[C@H]1c1ncc(-c2ccc3c(ccc4cc(-c5cnc([C@@H]6CCCN6C(=O)[C@@H](NC(=O)OC)C(C)C)[nH]5)sc43)c2)[nH]1)C(C)C")
3

====

measurement-description: Tmax in rat at 10 mg/kg, po measured up to 24 hrs by LC-MS/MS analysis
Assay type: ADME, organism-based
applied-conditions: in vivo
reported-metric: Tmax

>>> meas_value("COC(=O)N[C@H](C(=O)N1CCC[C@H]1c1ncc(-c2ccc3c(c2)CCc2cc(-c4cnc([C@@H]5CCCN5C(=O)[C@@H](NC(=O)OC)C(C)C)[nH]4)sc2-3)[nH]1)C(C)C")
"0.25 to 2 h"
>>> meas_value("COC(=O)N[C@H](C(=O)N1CCC[C@H]1c1ncc(-c2ccc3c(ccc4cc(-c5cnc([C@@H]6CCCN6C(=O)[C@@H](NC(=O)OC)C(C)C)[nH]5)sc43)c2)[nH]1)C(C)C")
"4 to 6 h"
>>> meas_value("COC(=O)N[C@H](C(=O)N1CCC[C@H]1c1ncc(-c2ccc3c(c2)OCc2cc(-c4cnc([C@@H]5CCCN5C(=O)[C@@H](NC(=O)OC)C(C)C)[nH]4)sc2-3)[nH]1)C(C)C")
"2 to 4 h"

====

subject-of-test: CYP3A4 (Homo sapiens)
Sequence (P08684 whole entry): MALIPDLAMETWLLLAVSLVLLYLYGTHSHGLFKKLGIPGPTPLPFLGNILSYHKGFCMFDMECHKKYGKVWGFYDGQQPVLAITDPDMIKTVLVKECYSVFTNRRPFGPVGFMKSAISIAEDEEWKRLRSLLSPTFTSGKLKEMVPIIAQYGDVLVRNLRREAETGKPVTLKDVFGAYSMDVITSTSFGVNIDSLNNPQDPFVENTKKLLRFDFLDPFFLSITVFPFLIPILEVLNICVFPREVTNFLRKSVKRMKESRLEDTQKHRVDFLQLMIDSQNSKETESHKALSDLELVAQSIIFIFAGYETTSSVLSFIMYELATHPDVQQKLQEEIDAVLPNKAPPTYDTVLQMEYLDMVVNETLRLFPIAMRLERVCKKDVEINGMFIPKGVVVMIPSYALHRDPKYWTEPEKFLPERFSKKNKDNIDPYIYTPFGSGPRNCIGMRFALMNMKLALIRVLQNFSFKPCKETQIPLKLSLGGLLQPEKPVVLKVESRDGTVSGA
measurement-description: Inhibition of CYP3A4 in pooled human liver microsomes at 10 uM pre-incubated for 5 mins before NADPH addition and measured after 10 mins by UPLC-MS/MS analysis relative to control
Assay type: ADME
The compounds listed here are annotated with their inhibition at 10 min, 10 µM.
reported-metric: inhibition at 10 min, 10 µM (%)

>>> meas_value("COC(=O)N[C@H](C(=O)N1CCC[C@H]1c1ncc(-c2ccc3c(c2)OCC(C)(C)COc2cc(-c4cnc([C@@H]5CCCN5C(=O)[C@@H](NC(=O)OC)C(C)C)[nH]4)ccc2-3)[nH]1)C(C)C")
0
>>> meas_value("COC(=O)N[C@H](C(=O)N1CCC[C@H]1c1ncc(-c2ccc3c(ccc4cc(-c5cnc([C@@H]6CCCN6C(=O)[C@@H](NC(=O)OC)C(C)C)[nH]5)sc43)c2)[nH]1)C(C)C")
12
>>> meas_value("COC(=O)N[C@H](C(=O)N1CCC[C@H]1c1ncc(-c2ccc3c(c2)CCc2cc(-c4cnc([C@@H]5CCCN5C(=O)[C@@H](NC(=O)OC)C(C)C)[nH]4)sc2-3)[nH]1)C(C)C")
56
>>> meas_value("COC(=O)N[C@H](C(=O)N1CCC[C@H]1c1ncc(-c2ccc3c(c2)OCc2cc(-c4cnc([C@@H]5CCCN5C(=O)[C@@H](NC(=O)OC)C(C)C)[nH]4)sc2-3)[nH]1)C(C)C")
22
>>> meas_value("COC(=O)N[C@H](C(=O)N1CCC[C@H]1c1nc(Cl)c(-c2ccc3c(c2)OCC(C)(C)COc2cc(-c4[nH]c([C@@H]5CCCN5C(=O)[C@@H](NC(=O)OC)C(C)C)nc4Cl)ccc2-3)[nH]1)C(C)C")
6

====

measurement-description: Cmax in beagle dog at 100 mg/kg, po measured up to 24 hrs by LC-MS/MS analysis
Type: ADME, organism-based, Canis lupus familiaris
Parameters: dose 100 mg/kg, route oral
applied-conditions: in vivo
reported-metric: Cmax (µM)

>>> meas_value("COC(=O)N[C@H](C(=O)N1CCC[C@H]1c1ncc(-c2ccc3c(ccc4cc(-c5cnc([C@@H]6CCCN6C(=O)[C@@H](NC(=O)OC)C(C)C)[nH]5)sc43)c2)[nH]1)C(C)C")
17
